Measured values drawn from patent US20230286925A1 for this set.

As shown below, each of these compounds has a reported pIC50 value.
Target: MLL1-WDR5 protein-protein interaction (Homo sapiens (Human), UniProt P61964)
Experiment: WDR5 TR-FRET assay of inhibition against MLL1-WDR5 protein-protein interaction
Format: binding
Settings: WDR5 TR-FRET, 5 nM WDR5 protein, 10 nM peptide; read-out: MLL1-WDR5 PPI inhibitory activity
pIC50: −log10 of the molar value.
READOUT: pIC50

CN1CCN(c2ccc(-n3cc(C(=O)NCCCN4CCOCC4)nn3)cc2NC(=O)c2cc(O)cc(C(F)(F)F)c2)CC1 = 6.57
CN1CCN(c2ccc(-n3cc(C(=O)NCCCN4CCOCC4)nn3)cc2NC(=O)c2nn(C)c3ccccc23)CC1 = 5.26
Cc1c(F)c(N)cc(C(=O)Nc2cc(-n3cc(C(=O)N4CCN(C)CC4)nn3)c(F)cc2N2C[C@@H](C)N(C)[C@@H](C)C2)c1Cl = 8.33
Cc1c(F)c(N)cc(C(=O)Nc2cc(-n3cc(C(=O)NCCCN4CCOCC4)nn3)ccc2N2C[C@@H](C)N(C)[C@@H](C)C2)c1Cl = 8.15
Cc1c(F)c(N)cc(C(=O)Nc2cc(-n3cc(C(=O)NC4CCN(C)CC4)nn3)c(F)cc2N2C[C@@H](C)N(C)[C@@H](C)C2)c1Cl = 8.59
Cc1c(F)c(N)cc(C(=O)Nc2cc(-n3cc(C(=O)NCCCN4CCOCC4)nn3)c(F)cc2N2CCN(C)C(C)C2)c1Cl (stereo not drawn) = 7.97

----------
As shown below, each of these compounds has a reported IC50 value.
Biological target: MLL1-WDR5 protein-protein interaction (Homo sapiens (Human), UniProt P61964)
Assay: WDR5 TR-FRET assay of inhibition against MLL1-WDR5 protein-protein interaction
Type: binding
Conditions: WDR5 TR-FRET, 5 nM WDR5 protein, 10 nM peptide; read-out: MLL1-WDR5 PPI inhibitory activity
READOUT: IC50 (nM)

Cc1c(F)c([N+](=O)[O-])cc(C(=O)Nc2cc(-n3cc(C(=O)NCCCN4CCOCC4)nn3)ccc2N2CCN(C)CC2)c1Cl = 131
CCOC(=O)[C@H](C)OC(=O)c1cn(-c2ccc(N3CCN(C)CC3)c(NC(=O)c3cc(N)c(F)c(C)c3Cl)c2)nn1 = 19.4
Cc1cc(C)cc(C(=O)Nc2cc(-n3cc(C(=O)NCCCN4CCOCC4)nn3)ccc2N2CCN(C)CC2)c1 = 903
Cc1cc(C(=O)Nc2cc(-n3cc(C(=O)NCCCN4CCOCC4)nn3)ccc2N2CCN(C)CC2)cc(C)c1F = 109

----------
Target: MLL1-WDR5 protein-protein interaction (Homo sapiens (Human), UniProt P61964)
Experiment: WDR5 TR-FRET assay of inhibition against MLL1-WDR5 protein-protein interaction
Assay type: binding
Conditions: WDR5 TR-FRET, 5 nM WDR5 protein, 10 nM peptide; read-out: MLL1-WDR5 PPI inhibitory activity
As shown below, each of these compounds has a reported IC50 value.
READOUT: IC50

Cc1c(F)c(N)cc(C(=O)Nc2cc(-n3cc(C(=O)NCCCN4CCN(C)CC4)nn3)c(F)cc2N2C[C@@H](C)N(C)[C@@H](C)C2)c1Cl = 3.65 nM
Cc1c(F)c(N)cc(C(=O)Nc2cc(-n3cc(C(=O)N4CCOCC4)nn3)c(F)cc2N2C[C@@H](C)N(C)[C@@H](C)C2)c1Cl = 3.08 nM
Cc1c(F)c(N)cc(C(=O)Nc2cc(-n3cc(C(=O)OC4(C)CCC4)nn3)ccc2N2CCN(C)CC2)c1Cl = 16.8 nM
Cc1c(F)ccc(C(=O)Nc2cc(-n3cc(C(=O)NCCCN4CCOCC4)nn3)c(F)cc2N2CCN(C)CC2)c1Cl = 19.4 nM
CN1CCN(c2ccc(-n3cc(C(=O)NCCCN4CCOCC4)nn3)cc2NC(=O)c2ccc(F)c(C(F)(F)F)c2)CC1 = 802 nM

----------
Target: MLL1-WDR5 protein-protein interaction (Homo sapiens (Human))
Assay: WDR5 TR-FRET assay of inhibition against MLL1-WDR5 protein-protein interaction
Type: binding
Details: Table 7; read-out: WDR5 TR-FRET Assay (IC50 nM)
Mark y only for IC50 values smaller than 50 nM; exact matches and larger values are n.

C[C@@H]1CN(c2cc(F)c(-c3ccc(NC(=O)C4CCCCC4)cc3)cc2Nc2ncnc(Cl)c2N)C[C@H](C)N1C = y
C[C@@H]1CN(c2cc(F)c(-n3cc(C(=O)N4CCOCC4)nn3)cc2Nc2ncnc(Cl)c2N)C[C@H](C)N1C = n
C[C@@H]1CN(c2cc(F)c(-c3ccnc(OCC4CC4)c3)cc2Nc2ncnc(Cl)c2N)C[C@H](C)N1C = y
C[C@@H]1CN(c2cc(F)c(-c3ccnc(N(C)C)n3)cc2Nc2ncnc(Cl)c2N)C[C@H](C)N1C = n
C[C@@H]1CN(c2cc(F)c(-c3ccc(CN4CCOCC4)cc3)cc2Nc2ncnc(Cl)c2N)C[C@H](C)N1C = n

----------
Target: MLL1-WDR5 protein-protein interaction (Homo sapiens (Human))
Assay: WDR5 TR-FRET assay of inhibition against MLL1-WDR5 protein-protein interaction
Type: binding
Conditions: Table 7; read-out: WDR5 TR-FRET Assay (IC50 nM)
READOUT: IC50 (nM)

CC(C)NC(=O)c1ccc(-c2cc(Nc3ncnc(Cl)c3N)c(N3C[C@@H](C)N(C)[C@@H](C)C3)cc2F)cc1 = 68.8
C[C@@H]1CN(c2ccc(-c3ccc(NC(=O)C4CCCCC4)cc3)c(F)c2Nc2ncnc(Cl)c2N)C[C@H](C)N1C = 186
C[C@H]1CN(c2cc(F)c(-c3ccc(C(=O)NCC4CCOCC4)cc3)cc2Nc2ncnc(Cl)c2N)CCN1C = 12.2
C[C@H]1CN(c2cc(F)c(-c3ccc(C(=O)N(C)C)cc3)cc2Nc2ncnc(Cl)c2N)CCN1C = 11.1
C[C@@H]1CN(c2cc(F)c(-c3ccnc(N4CCOCC4)n3)cc2Nc2ncnc(Cl)c2N)C[C@H](C)N1C = 15
